test_name: logP determination by retention times (calibration with alkan-2-ones)
Would you kindly list chromatographic logP for each of these compounds?

// `CC(=O)c1cccc(Nc2nccc(-c3sc(C)nc3C(F)(F)F)n2)c1` : chromatographic logP value = 3.02

// COCC(C)Nc1nc(C)c(-c2ccnc(Nc3ccc(O)cc3)n2)s1 (centres unmarked) : chromatographic logP value = 1.4

// `Cc1nc(C)c(-c2ccnc(Nc3ccc(C(F)(F)F)cc3)n2)s1` : chromatographic logP value = 3.56

// `COc1ccc(Nc2nccc(-c3sc(C(C)C)nc3C)n2)cn1` : chromatographic logP value = 2.76

// `COCc1nc(C)c(-c2ccnc(Nc3ccc(C#N)cc3)n2)s1` : chromatographic logP value = 2.57

----------
test_name: logP determination by retention times (calibration with alkan-2-ones)
condition_context: logP(HCOOH), HCOOH
Hi! Could you tag entries with chromatographic logP below 3 as condition met, and those at or above as condition not met? Much appreciated.

Ask | In the record for Cc1nc(C2CCCCC2)sc1-c1ccnc(Nc2cccc([N+](=O)[O-])c2)n1 [Example 216] , is chromatographic logP less than 3?
Reply | condition not met

Ask | In the record for COc1cc(Nc2ncc(Cl)c(-c3sc(C)nc3C)n2)cc(OC)c1OC [Example 874] , is chromatographic logP less than 3?
Reply | condition met

Ask | In the record for Cc1nc2c(s1)-c1nc(Nc3cccc([N+](=O)[O-])c3)ncc1CC2 [Example 95] , is chromatographic logP less than 3?
Reply | condition met

Ask | In the record for `Cc1nc2c(s1)C(=O)CCC2` , is chromatographic logP less than 3?
Reply | condition met

Ask | In the record for `Cc1nc(C)c(-c2nc(Cl)ncc2Cl)s1` , is chromatographic logP less than 3?
Reply | condition met

----------
test_name: logP determination by retention times (calibration with alkan-2-ones)
condition_context: logP, * HPLC reversed-phase C18, 40° C., mobile phase 0.1% aqueous formic acid and acetonitrile, linear gradient 10% to 95% acetonitrile
measurement_kind: chromatographic logP
Note: the reply should be a number with no unit written.

// `CSc1nc(C)c(-c2ccnc(Nc3ccc(F)c(C)c3)n2)s1` : chromatographic logP value = 3.89

// `Cc1nc(C(F)(F)F)c(-c2ccnc(Nc3ccc(F)c(F)c3)n2)s1` : chromatographic logP value = 3.76

// `COc1cc(Nc2nccc(-c3sc(N4CCOCC4)nc3C)n2)cc(OC)c1OC` : chromatographic logP value = 2.07

// `CSc1nc(C)c(-c2ccnc(Nc3ccc(N(C)C)cc3)n2)s1` : chromatographic logP value = 1.75

// COCC(C)Nc1nc(C)c(-c2ccnc(Nc3ccc(F)c(C)c3)n2)s1 (stereo not drawn) : chromatographic logP value = 2.19

// `CC(=O)c1cccc(N(C(C)=O)c2nccc(-c3sc(C4CC4)nc3C)n2)c1` : chromatographic logP value = 2.43

// `CC(=O)Nc1ccc(Nc2nccc(-c3sc(C)nc3C(F)(F)F)n2)cc1` : chromatographic logP value = 2.26

// `COCCCNc1nc(C)c(-c2ccnc(Nc3cccc(Cl)c3)n2)s1` : chromatographic logP value = 2.28

// `CCc1nc(C)c(-c2ccnc(Nc3ccc(C)c(C)c3)n2)s1` : chromatographic logP value = 3.71

----------
test_name: logP determination by retention times (calibration with alkan-2-ones)
measurement_kind: chromatographic logP
Note: the reply should be a number with no unit written.

// `Cc1nc(C2CC2)sc1-c1ccnc(Nc2ccc(N(C)C)c(Cl)c2)n1` : chromatographic logP value = 2.59

// `Cc1cc(Nc2nccc(-c3sc(C4CC4)nc3C)n2)ccc1F` : chromatographic logP value = 3.71

// COCC(C)Nc1nc(C)c(-c2ccnc(Nc3cc(OC)c(OC)c(OC)c3)n2)s1 (centres unmarked) : chromatographic logP value = 1.85

// `COCc1nc(C)c(-c2ccnc(Nc3cccc(O)c3)n2)s1` : chromatographic logP value = 1.97

// `COCc1nc(C)c(-c2ccnc(Nc3ccc(N(C)C)c(Cl)c3)n2)s1` : chromatographic logP value = 2.04
